- assay-comment: Moisture sorption/desorption studies (hygrostat, storage at different temperatures and relative humidity)
- Assay type: physicochemical
- condition-info: 37° C., 94% RH, 6 h
value-kind: water content (Table III)
Write your answer as a measured quantity: the number, then the unit.

Record CN1C2CCC1CC(NC(=O)n1c(=O)[nH]c3ccccc31)C2 (stereo not shown) [Compound 1a, reference compound] , field water content (Table III): 4.68%

* * *

- assay-comment: Accelerated stability tests in tablets and capsules
- Format: physicochemical
- condition-info: tablets and capsules, 3 months/40° C.-75% RH; tablets and capsules in PVC/PVDC blister with aluminium foil; read-out: % degradation
value-kind: degraded at 2160 h (%)
One number for each entry, in %.

Record CN1C2CCC1CC(NC(=O)n1c(=O)[nH]c3ccccc31)C2 (stereo not shown) [Compound 1a, reference compound] , field degraded at 2160 h: 0.8
